System: OVCAR-5 complex spheroid (HUVEC/MSC), viability % T/C
ASSAY EXPLANATION: Anticancer human tumor OVCAR-5 cell line growth inhibition [Asc];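 note: spheroids exposed to agents for 7 days before readout; 100% = DMSO vehicle-treated wells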
MEASUREMENT PARAMETERS: second compound 1 µM; first compound 0.949 µM; active compounds read low
MEASURE: viability, T/C (%)
// units = %; emit number, no label

// solved cases for viability, T/C follow
molecule="CCN1C(C(=O)NC23CCC(C(=O)O)(CC2)CC3)C(c2cccc(Cl)c2F)C2(C(=O)Nc3cc(Cl)ccc32)C12CCCCC2 (centres undefined) + Cc1c(S(C)(=O)=O)c(-c2cc(F)cc(N3CCN(c4ccc(NS(=O)(=O)c5ccc(NC(CCN6CCC(C(=O)OCCCP(=O)(O)O)CC6)CSc6ccccc6)c(S(=O)(=O)C(F)(F)F)c5)cc4)CC3)c2)c(-c2ccc(Cl)cc2)n1C(C)C" measure="viability, T/C" experimental_result=75.4
molecule="Cc1nc(N2CCC3(CC2)COC(C)C3N)c(CO)nc1Sc1ccnc(N)c1Cl (centres undefined) + CNC(C)C(=O)NC1CN(S(=O)(=O)c2cccc(S(=O)(=O)N3CCC4CCC(C(=O)NC(c5ccccc5)c5ccccc5)N4C(=O)C(NC(=O)C(C)NC)C3)c2)CCC2CCC(C(=O)NC(c3ccccc3)c3ccccc3)N2C1=O" measure="viability, T/C" experimental_result=60.2
molecule="CCN1C(C(=O)NC23CCC(C(=O)O)(CC2)CC3)C(c2cccc(Cl)c2F)C2(C(=O)Nc3cc(Cl)ccc32)C12CCCCC2 (centres undefined) + CNC(C)C(=O)NC1CN(S(=O)(=O)c2cccc(S(=O)(=O)N3CCC4CCC(C(=O)NC(c5ccccc5)c5ccccc5)N4C(=O)C(NC(=O)C(C)NC)C3)c2)CCC2CCC(C(=O)NC(c3ccccc3)c3ccccc3)N2C1=O" measure="viability, T/C" experimental_result=90.1

Let us move to another entry and its viability, T/C.
Query :: Query for OVCAR-5 complex spheroid (HUVEC/MSC), viability % T/C: what viability, T/C does the record show for Cc1nc(N2CCC3(CC2)COC(C)C3N)c(CO)nc1Sc1ccnc(N)c1Cl (centres undefined) + Cc1c(S(C)(=O)=O)c(-c2cc(F)cc(N3CCN(c4ccc(NS(=O)(=O)c5ccc(NC(CCN6CCC(C(=O)OCCCP(=O)(O)O)CC6)CSc6ccccc6)c(S(=O)(=O)C(F)(F)F)c5)cc4)CC3)c2)c(-c2ccc(Cl)cc2)n1C(C)C ?
Result :: 51.1

====

System: OVCAR-5 complex spheroid (HUVEC/MSC), viability % T/C
ASSAY EXPLANATION: Anticancer human tumor OVCAR-5 cell line growth inhibition [Asc];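 note: spheroids exposed to agents for 7 days before readout; 100% = DMSO vehicle-treated wells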
MEASUREMENT PARAMETERS: second compound 0.1 µM; first compound 0.0949 µM; active compounds read low
Consider the following compounds and their measured viability, T/C readings.
Write it as a number; the unit % goes unstated.

Example entries and their recorded answers appear below.
compound="NC(=O)C(=Cn1cnc(-c2cc(C(F)(F)F)cc(C(F)(F)F)c2)n1)c1cncnc1 + Cc1c(S(C)(=O)=O)c(-c2cc(F)cc(N3CCN(c4ccc(NS(=O)(=O)c5ccc(NC(CCN6CCC(C(=O)OCCCP(=O)(O)O)CC6)CSc6ccccc6)c(S(=O)(=O)C(F)(F)F)c5)cc4)CC3)c2)c(-c2ccc(Cl)cc2)n1C(C)C" experimental_result=82.2
compound="CCN1C(C(=O)NC23CCC(C(=O)O)(CC2)CC3)C(c2cccc(Cl)c2F)C2(C(=O)Nc3cc(Cl)ccc32)C12CCCCC2 (stereo not drawn) + Cc1c(S(C)(=O)=O)c(-c2cc(F)cc(N3CCN(c4ccc(NS(=O)(=O)c5ccc(NC(CCN6CCC(C(=O)OCCCP(=O)(O)O)CC6)CSc6ccccc6)c(S(=O)(=O)C(F)(F)F)c5)cc4)CC3)c2)c(-c2ccc(Cl)cc2)n1C(C)C" experimental_result=93.1

Query :: What value of viability, T/C has been reported for the following compound? CCN1C(C(=O)NC23CCC(C(=O)O)(CC2)CC3)C(c2cccc(Cl)c2F)C2(C(=O)Nc3cc(Cl)ccc32)C12CCCCC2 (stereo not drawn) + CNC(C)C(=O)NC1CN(S(=O)(=O)c2cccc(S(=O)(=O)N3CCC4CCC(C(=O)NC(c5ccccc5)c5ccccc5)N4C(=O)C(NC(=O)C(C)NC)C3)c2)CCC2CCC(C(=O)NC(c3ccccc3)c3ccccc3)N2C1=O
Result :: 88.6

====

# viability, T/C per record follows
System: OVCAR-5 complex spheroid (HUVEC/MSC), viability % T/C
ASSAY EXPLANATION: Anticancer human tumor OVCAR-5 cell line growth inhibition [Asc];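 note: spheroids exposed to agents for 7 days before readout; 100% = DMSO vehicle-treated wells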
MEASUREMENT PARAMETERS: second compound 1 µM; first compound 0.03 µM; active compounds read low
State the answer as a number, implicitly in %.

Query :: Lab note: need viability, T/C for NC(=O)C(=Cn1cnc(-c2cc(C(F)(F)F)cc(C(F)(F)F)c2)n1)c1cncnc1 + Cc1c(S(C)(=O)=O)c(-c2cc(F)cc(N3CCN(c4ccc(NS(=O)(=O)c5ccc(NC(CCN6CCC(C(=O)OCCCP(=O)(O)O)CC6)CSc6ccccc6)c(S(=O)(=O)C(F)(F)F)c5)cc4)CC3)c2)c(-c2ccc(Cl)cc2)n1C(C)C on OVCAR-5 complex spheroid (HUVEC/MSC), viability % T/C, anyone have it?
Result :: 79

Query :: Report viability, T/C for NC(=O)C(=Cn1cnc(-c2cc(C(F)(F)F)cc(C(F)(F)F)c2)n1)c1cncnc1 + CNC(C)C(=O)NC1CN(S(=O)(=O)c2cccc(S(=O)(=O)N3CCC4CCC(C(=O)NC(c5ccccc5)c5ccccc5)N4C(=O)C(NC(=O)C(C)NC)C3)c2)CCC2CCC(C(=O)NC(c3ccccc3)c3ccccc3)N2C1=O tested on OVCAR-5 complex spheroid (HUVEC/MSC), viability % T/C.
Result :: 70.6

Query :: What value of viability, T/C on OVCAR-5 complex spheroid (HUVEC/MSC), viability % T/C does CCN1C(C(=O)NC23CCC(C(=O)O)(CC2)CC3)C(c2cccc(Cl)c2F)C2(C(=O)Nc3cc(Cl)ccc32)C12CCCCC2 (stereo not drawn) + Cc1c(S(C)(=O)=O)c(-c2cc(F)cc(N3CCN(c4ccc(NS(=O)(=O)c5ccc(NC(CCN6CCC(C(=O)OCCCP(=O)(O)O)CC6)CSc6ccccc6)c(S(=O)(=O)C(F)(F)F)c5)cc4)CC3)c2)c(-c2ccc(Cl)cc2)n1C(C)C have?
Result :: 85.5

====

System: OVCAR-5 complex spheroid (HUVEC/MSC), viability % T/C
ASSAY EXPLANATION: Anticancer human tumor OVCAR-5 cell line growth inhibition [Asc];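 note: spheroids exposed to agents for 7 days before readout; 100% = DMSO vehicle-treated wells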
MEASUREMENT PARAMETERS: second compound 0.01 µM; first compound 0.316 µM; active compounds read low
// values below are reported viability, T/C
The reply should be a number in %, with the unit left off.

Past entries and their recorded results:
compound="CCN1CCN(Cc2ccc(Nc3ncc(F)c(-c4cc(F)c5nc(C)n(C(C)C)c5c4)n3)nc2)CC1 + CNC(C)C(=O)NC1CN(S(=O)(=O)c2cccc(S(=O)(=O)N3CCC4CCC(C(=O)NC(c5ccccc5)c5ccccc5)N4C(=O)C(NC(=O)C(C)NC)C3)c2)CCC2CCC(C(=O)NC(c3ccccc3)c3ccccc3)N2C1=O" target_of_assay="OVCAR-5 complex spheroid (HUVEC/MSC), viability % T/C" experimental_result=62.7
compound="C=CC(=O)N1CCN(c2nc(=O)n(-c3c(C)ccnc3C(C)C)c3nc(-c4c(O)cccc4F)c(F)cc23)C(C)C1 (configuration not stated) + CNC(C)C(=O)NC1CN(S(=O)(=O)c2cccc(S(=O)(=O)N3CCC4CCC(C(=O)NC(c5ccccc5)c5ccccc5)N4C(=O)C(NC(=O)C(C)NC)C3)c2)CCC2CCC(C(=O)NC(c3ccccc3)c3ccccc3)N2C1=O" target_of_assay="OVCAR-5 complex spheroid (HUVEC/MSC), viability % T/C" experimental_result=85.9
compound="O=C(c1cc(Cc2n[nH]c(=O)c3ccccc23)ccc1F)N1CCN(C(=O)C2CC2)CC1 + CNC(C)C(=O)NC1CN(S(=O)(=O)c2cccc(S(=O)(=O)N3CCC4CCC(C(=O)NC(c5ccccc5)c5ccccc5)N4C(=O)C(NC(=O)C(C)NC)C3)c2)CCC2CCC(C(=O)NC(c3ccccc3)c3ccccc3)N2C1=O" target_of_assay="OVCAR-5 complex spheroid (HUVEC/MSC), viability % T/C" experimental_result=87.1
compound="C#Cc1c(F)ccc2cc(O)cc(-c3ncc4c(N5CC6CCC(C5)N6)nc(OCC56CCCN5CC(F)C6)nc4c3F)c12 (configuration not stated) + CNC(C)C(=O)NC1CN(S(=O)(=O)c2cccc(S(=O)(=O)N3CCC4CCC(C(=O)NC(c5ccccc5)c5ccccc5)N4C(=O)C(NC(=O)C(C)NC)C3)c2)CCC2CCC(C(=O)NC(c3ccccc3)c3ccccc3)N2C1=O" target_of_assay="OVCAR-5 complex spheroid (HUVEC/MSC), viability % T/C" experimental_result=95.8
compound="O=C(c1ccc(F)c(F)c1Nc1ccc(I)cc1F)N1CC(O)([C@@H]2CCCCN2)C1 + CNC(C)C(=O)NC1CN(S(=O)(=O)c2cccc(S(=O)(=O)N3CCC4CCC(C(=O)NC(c5ccccc5)c5ccccc5)N4C(=O)C(NC(=O)C(C)NC)C3)c2)CCC2CCC(C(=O)NC(c3ccccc3)c3ccccc3)N2C1=O" target_of_assay="OVCAR-5 complex spheroid (HUVEC/MSC), viability % T/C" experimental_result=40.9

Query :: # viability, T/C lookup, item C=C(F)C(=O)N1CCN(c2nc(OCC3CCCN3C)nc3c2CCN(c2cccc4cccc(Cl)c24)C3)CC1CC#N (configuration not stated) + CNC(C)C(=O)NC1CN(S(=O)(=O)c2cccc(S(=O)(=O)N3CCC4CCC(C(=O)NC(c5ccccc5)c5ccccc5)N4C(=O)C(NC(=O)C(C)NC)C3)c2)CCC2CCC(C(=O)NC(c3ccccc3)c3ccccc3)N2C1=O
Result :: 82.5

Query :: // viability, T/C lookup, key: COc1c(OCCCN2CCOCC2)ccc2c3n(c(=NC(=O)c4cnc(N)nc4)nc12)CCN3 + CNC(C)C(=O)NC1CN(S(=O)(=O)c2cccc(S(=O)(=O)N3CCC4CCC(C(=O)NC(c5ccccc5)c5ccccc5)N4C(=O)C(NC(=O)C(C)NC)C3)c2)CCC2CCC(C(=O)NC(c3ccccc3)c3ccccc3)N2C1=O
Result :: 17.1
